Values from patent US9932314B2

Target: voltage-dependent T-type calcium channel subunit alpha-1G (Cav3.2) (Homo sapiens, UniProt O95180)
Sequence (O95180 whole entry): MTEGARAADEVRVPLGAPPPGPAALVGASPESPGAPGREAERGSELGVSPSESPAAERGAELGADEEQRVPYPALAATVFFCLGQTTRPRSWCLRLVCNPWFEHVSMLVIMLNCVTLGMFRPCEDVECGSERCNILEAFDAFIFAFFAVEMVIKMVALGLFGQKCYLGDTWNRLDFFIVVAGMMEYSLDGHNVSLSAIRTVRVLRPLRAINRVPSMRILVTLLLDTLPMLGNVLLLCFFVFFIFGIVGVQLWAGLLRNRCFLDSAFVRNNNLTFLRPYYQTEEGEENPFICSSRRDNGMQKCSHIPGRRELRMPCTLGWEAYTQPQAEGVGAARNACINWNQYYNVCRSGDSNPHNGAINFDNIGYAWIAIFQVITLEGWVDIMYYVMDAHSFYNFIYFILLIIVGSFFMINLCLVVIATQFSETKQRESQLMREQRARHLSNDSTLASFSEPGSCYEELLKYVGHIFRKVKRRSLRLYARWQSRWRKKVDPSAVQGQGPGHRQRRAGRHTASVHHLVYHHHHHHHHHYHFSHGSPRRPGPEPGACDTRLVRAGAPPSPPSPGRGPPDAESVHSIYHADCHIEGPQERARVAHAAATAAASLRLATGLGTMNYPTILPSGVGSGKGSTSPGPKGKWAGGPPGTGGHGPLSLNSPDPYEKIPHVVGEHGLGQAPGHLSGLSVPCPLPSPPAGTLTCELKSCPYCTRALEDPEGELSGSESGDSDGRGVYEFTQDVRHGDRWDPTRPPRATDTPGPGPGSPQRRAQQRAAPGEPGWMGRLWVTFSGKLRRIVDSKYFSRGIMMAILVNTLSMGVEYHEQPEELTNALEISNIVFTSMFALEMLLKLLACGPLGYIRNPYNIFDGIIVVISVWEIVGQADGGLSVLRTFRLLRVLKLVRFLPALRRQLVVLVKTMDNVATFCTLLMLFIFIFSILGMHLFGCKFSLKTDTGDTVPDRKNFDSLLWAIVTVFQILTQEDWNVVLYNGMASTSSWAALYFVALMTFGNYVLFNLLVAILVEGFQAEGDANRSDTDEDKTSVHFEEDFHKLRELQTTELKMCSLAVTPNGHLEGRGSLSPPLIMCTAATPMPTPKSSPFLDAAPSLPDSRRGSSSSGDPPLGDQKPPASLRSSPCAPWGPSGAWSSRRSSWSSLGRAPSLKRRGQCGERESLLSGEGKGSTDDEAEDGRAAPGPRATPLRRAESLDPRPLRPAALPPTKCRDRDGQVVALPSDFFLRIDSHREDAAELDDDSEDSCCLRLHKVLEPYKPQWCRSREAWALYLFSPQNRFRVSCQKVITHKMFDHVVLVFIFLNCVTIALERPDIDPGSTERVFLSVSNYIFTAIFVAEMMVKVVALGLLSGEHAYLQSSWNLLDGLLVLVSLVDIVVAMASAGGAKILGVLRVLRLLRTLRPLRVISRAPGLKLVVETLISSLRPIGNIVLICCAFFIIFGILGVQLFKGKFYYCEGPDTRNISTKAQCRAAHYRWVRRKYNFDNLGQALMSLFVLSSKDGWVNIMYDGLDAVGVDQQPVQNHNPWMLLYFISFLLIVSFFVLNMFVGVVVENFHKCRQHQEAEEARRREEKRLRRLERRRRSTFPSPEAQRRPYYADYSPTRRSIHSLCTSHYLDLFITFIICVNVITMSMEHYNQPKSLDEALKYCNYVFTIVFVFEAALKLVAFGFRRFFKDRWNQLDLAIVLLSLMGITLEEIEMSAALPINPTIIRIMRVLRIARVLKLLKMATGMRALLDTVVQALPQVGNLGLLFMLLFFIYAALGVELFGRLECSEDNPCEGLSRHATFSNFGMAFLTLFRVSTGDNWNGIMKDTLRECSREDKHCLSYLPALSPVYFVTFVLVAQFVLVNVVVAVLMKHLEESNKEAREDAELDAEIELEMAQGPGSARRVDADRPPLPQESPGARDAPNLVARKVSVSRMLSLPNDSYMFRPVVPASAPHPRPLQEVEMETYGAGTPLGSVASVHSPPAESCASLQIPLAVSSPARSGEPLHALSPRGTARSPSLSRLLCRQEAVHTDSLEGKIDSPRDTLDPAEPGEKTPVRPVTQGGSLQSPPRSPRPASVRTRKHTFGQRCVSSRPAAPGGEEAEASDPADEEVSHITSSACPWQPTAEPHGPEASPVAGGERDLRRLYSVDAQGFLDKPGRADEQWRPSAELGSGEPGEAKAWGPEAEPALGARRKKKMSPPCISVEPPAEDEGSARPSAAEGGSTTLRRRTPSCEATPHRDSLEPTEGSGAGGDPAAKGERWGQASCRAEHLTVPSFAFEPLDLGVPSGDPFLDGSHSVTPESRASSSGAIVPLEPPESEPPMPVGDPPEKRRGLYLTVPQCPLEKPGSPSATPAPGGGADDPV
Test: FLIPR calcium flux assay, HEK293 cells recombinantly expressing Cav3.2
Settings: Cav3.2-channel, Fluo-4-AM, 3 min incubation, stimulation with 10 mM CaCl2
Attribute Measured: IC50 (µM)

Recorded results for 5 compounds are shown here.
Cc1nccnc1-c1ccc(CC(=O)Nc2ccn(Cc3ccc(F)cc3)n2)cc1; 0.092
N#Cc1ccc(Cn2ccc(NC(=O)Cc3ccc(N4CCC(F)(F)C4)cc3)n2)cc1; 0.0061
COc1ccc(Cn2ccc(NC(=O)Cc3ccc(OC4CCC4)cc3)n2)cc1; 0.074
CCN(CC)c1ccc(CC(=O)Nc2ccn(Cc3ccc(C#N)cc3)n2)cn1; 0.088
CC(C)c1ccc(CC(=O)Nc2ccn(Cc3ccc(N4CCCC4)cn3)n2)cc1; 0.315

a = N#Cc1ccc(Cn2ccc(NC(=O)Cc3ccc(C4(C(F)(F)F)CC4)cc3)n2)cc1F
b = N#Cc1ccc(Cn2ccc(NC(=O)Cc3ccc(C4(C#N)CC(F)(F)C4)cc3)n2)nc1
c = CC1(COc2ccc(CC(=O)Nc3ccn(Cc4ccc(C#N)c(F)c4)n3)cc2)COC1
d = CCN(C)c1ccc(CC(=O)Nc2ccn(Cc3ccc(C#N)cc3)n2)cn1
Input: Arrange the 4 entries by IC50 so the values rise. Answer format: list of labels, ordered as asked.
Output: a, b, c, d
(a: 0.015 µM, b: 0.047 µM, c: 0.097 µM, d: 0.188 µM)

P = CC(C)c1ccc(CC(=O)Nc2ccn(Cc3ccc(F)c(F)c3)n2)cn1
Q = CC(C)(C)c1ccc(CC(=O)Nc2ccn(Cc3ccc(C#N)cc3)n2)cc1
R = CC(C)c1ccc(CC(=O)Nc2ccn(Cc3ccc(C#N)cc3)n2)cc1
Input: Please list the entries, largest IC50 first. // list labels; follow requested order
Output: P, R, Q
(P: 0.109 µM, R: 0.0054 µM, Q: 0.0034 µM)

A = CC1(COc2ccc(CC(=O)Nc3ccn(Cc4ccc(C#N)cn4)n3)cc2)CC(F)(F)C1
B = Cn1cc(C#N)c2cc(CC(=O)Nc3ccn(Cc4ccc(F)c(C#N)c4)n3)ccc21
Input: Which shows the larger IC50 value: A or B ? Your answer should be the label attached to the chosen record.
Output: B
(B: 0.08 µM, A: 0.051 µM)

###

Biological target: voltage-dependent T-type calcium channel subunit alpha-1G (Cav3.2) (Homo sapiens)
Test: FLIPR calcium flux assay, HEK293 cells recombinantly expressing Cav3.2
Conditions: Cav3.2-channel, Fluo-4-AM, 3 min incubation, stimulation with 10 mM CaCl2
Attribute Measured: IC50 (nM)

Solved cases (2 shown):
N#Cc1c(F)cc(Cn2ccc(NC(=O)Cc3ccc(OCC4CC(F)(F)C4)cc3)n2)cc1F; 51
CC1(COc2ccc(CC(=O)Nc3ccn(Cc4ccc(C#N)cc4)n3)cc2)COC1; 208

1 = CC(C)(C#N)c1ccc(CC(=O)Nc2ccn(Cc3ccc(C#N)cn3)n2)cc1
2 = O=C(Cc1ccc(N2CCC(F)(F)C2)cc1)Nc1ccn(Cc2ccc(F)c(F)c2)n1
Input: // which entry has the larger IC50 value, 1 or 2 ? Record your answer as the label of the chosen record.
Output: 1

###

Biological target: voltage-dependent T-type calcium channel subunit alpha-1G (Cav3.2) (Homo sapiens, UniProt O95180)
Experiment: FLIPR calcium flux assay, HEK293 cells recombinantly expressing Cav3.2
Details: Cav3.2-channel, Fluo-4-AM, 3 min incubation, stimulation with 10 mM CaCl2
Protocol: In Vitro Methods—Measurement of Calcium Channel Flux by Means of FLIPR Assays. […] Stock solutions of test compounds are prepared to a concentration of 10 mM in DMSO. […] The kinetics of fluorescence increase are recorded for every well and the area under the fluorescence trace for every compound concentration is used to generate inhibition curves using non-linear regression sigmoidal concentration-response curve analysis with in-house software.
Attribute Measured: IC50 (nM)

N#Cc1c(F)cc(Cn2ccc(NC(=O)Cc3ccc(OCC4(F)COC4)cc3)n2)cc1F [Example 361]; 80
N#Cc1ccc(Cn2ccc(NC(=O)Cc3ccc(S(F)(F)(F)(F)F)cc3)n2)nc1 [Example 336]; 34
CC(C)c1ccc(CC(=O)Nc2ccn(Cc3ccc(N4CCC4)cn3)n2)cc1 [Example 394]; 126
N#Cc1c(F)cc(Cn2ccc(NC(=O)Cc3ccc(C4(F)COC4)cc3)n2)cc1F [Example 347]; 85
Cc1cc(CC(=O)Nc2ccn(Cc3ccc(C#N)cn3)n2)cc(C)c1OCC(F)(F)F [Example 414]; 6.4

a = COCCN(C)c1ccc(CC(=O)Nc2ccn(Cc3ccc(F)cc3)n2)cc1 [Example 128]
b = CC1(C)COc2cc(CC(=O)Nc3ccn(Cc4ccc(C#N)cn4)n3)ccc21 [Example 387]
c = CN(CC1CC1)c1ccc(CC(=O)Nc2ccn(Cc3ccc(F)cc3)n2)cn1 [Example 187]
Input: Sort the compounds on IC50; start with the lowest figure. Enter labels, ranked according to the request.
Output: a, c, b
(a: 9.7 nM, c: 15 nM, b: 122 nM)

A = CC(C)(C)c1ccc(CC(=O)Nc2ccn(Cc3cc(F)c(C#N)c(F)c3)n2)cc1 [Example 352]
B = Cc1ccc(Cn2ccc(NC(=O)Cc3ccc(C4(C(F)(F)F)CC4)cc3)n2)nc1C#N [Example 372]
Input: Which of the two gives a bigger number for IC50: A or B ? Answer by stating the label of the chosen item.
Output: B
(B: 38 nM, A: 22 nM)

a = CCc1ccc(Cn2ccc(NC(=O)Cc3ccc(C(C)C)cc3)n2)nc1 [Example 100]
b = N#Cc1ccc(Cn2ccc(NC(=O)Cc3ccc(OCC(F)(F)F)cc3)n2)cc1 [Example 47]
c = CC(C)(C)c1ccc(CC(=O)Nc2ccn(Cc3ccc(F)c(C#N)c3)n2)cc1 [Example 283]
d = O=C(Cc1ccc(N2CCC2)nc1)Nc1ccn(Cc2ccc(F)cc2)n1 [Example 103]
Input: Put the compounds in ascending order of IC50. Give the labels in the order requested.
Output: c, b, a, d

###

Target: voltage-dependent T-type calcium channel subunit alpha-1G (Cav3.2) (Homo sapiens, UniProt O95180)
Assay: FLIPR calcium flux assay, HEK293 cells recombinantly expressing Cav3.2
Conditions: Cav3.2-channel, Fluo-4-AM, 3 min incubation, stimulation with 10 mM CaCl2
Attribute Measured: IC50 (nM)

Example cases with answers are listed next.
Cc1cc(Cn2ccc(NC(=O)Cc3ccc(N(C)C)nc3)n2)ccc1F; 49
N#Cc1ccc(Cn2ccc(NC(=O)Cc3ccc(OCC(F)(F)F)c(C4CC4)c3)n2)nc1; 15
N#Cc1cc(Cn2ccc(NC(=O)Cc3ccc(OC4CC(F)(F)C4)cc3)n2)ccc1F; 21
N#CC1(c2ccc(CC(=O)Nc3ccn(Cc4ccc(F)c(F)c4)n3)cc2C(F)(F)F)CC1; 14
CC1(C)C(=O)Nc2ccc(CC(=O)Nc3ccn(Cc4ccc(F)c(F)c4)n3)cc21; 44

I = N#Cc1ccc(Cn2ccc(NC(=O)Cc3ccc(OC4CC4)cc3)n2)cc1
II = O=C(Cc1ccc(N2CC(F)C2)nc1)Nc1ccn(Cc2ccc(F)c(F)c2)n1
III = Cc1cc(CC(=O)Nc2ccn(Cc3ccc(C)c(C#N)n3)n2)ccc1OCC(F)(F)F
Input: Rank entries according to their IC50, from the largest number down. Lab note: final answer is the ordered label list.
Output: I, II, III

###

Target: voltage-dependent T-type calcium channel subunit alpha-1G (Cav3.2) (Homo sapiens, UniProt O95180)
Assay: FLIPR calcium flux assay, HEK293 cells recombinantly expressing Cav3.2
Details: Cav3.2-channel, Fluo-4-AM, 3 min incubation, stimulation with 10 mM CaCl2
Attribute Measured: IC50 (nM)

CC(C)c1ccc(CC(=O)Nc2ccn(Cc3cc(C#N)c(F)cn3)n2)cc1; 126

P = Cc1cc(Cn2ccc(NC(=O)Cc3ccc(C(C)C)cc3)n2)ncc1C#N
Q = N#Cc1ccc(Cn2ccc(NC(=O)Cc3ccc(C(F)(F)F)cc3)n2)nc1
Input: Field: entry with larger IC50 (options P / Q ). Reply briefly: the label of your chosen item.
Output: P

###

Target: voltage-dependent T-type calcium channel subunit alpha-1G (Cav3.2) (Homo sapiens, UniProt O95180)
Assay: FLIPR calcium flux assay, HEK293 cells recombinantly expressing Cav3.2
Settings: Cav3.2-channel, Fluo-4-AM, 3 min incubation, stimulation with 10 mM CaCl2
Attribute Measured: IC50 (nM)

1 = Cn1ccc2cc(CC(=O)Nc3ccn(Cc4ccc(F)cc4)n3)cnc21 [Example 213]
2 = CN1C(=O)COc2cc(CC(=O)Nc3ccn(Cc4ccc(F)c(F)c4)n3)ccc21 [Example 209]
Input: Would you kindly point out which of 1 and 2 has the smaller IC50 figure? In your reply, give the label of the chosen option.
Output: 1

A = CN(C)c1ccc(CC(=O)Nc2ccn(Cc3ccc(Cl)cc3)n2)cn1 [Example 5]
B = CC(C)c1ccc(Cn2ccc(NC(=O)Cc3ccc(N(C)C)cc3)n2)cc1 [Example 17]
C = CN(C)c1ccc(CC(=O)Nc2ccn(Cc3ccc(C#N)cc3)n2)cn1 [Example 15]
Input: Could you please sort these 3 entries by IC50 from high to low? // format: requested-order list of labels
Output: C, A, B
(C: 374 nM, A: 20 nM, B: 12 nM)
